Origin of the recorded values: the kinase profiling compilation of Christmann-Franck et al. (2016)

# System: ARAF (human), P10398 [Y301D/Y302D]
# Sequence (P10398 whole entry Y301D/Y302D, looked up): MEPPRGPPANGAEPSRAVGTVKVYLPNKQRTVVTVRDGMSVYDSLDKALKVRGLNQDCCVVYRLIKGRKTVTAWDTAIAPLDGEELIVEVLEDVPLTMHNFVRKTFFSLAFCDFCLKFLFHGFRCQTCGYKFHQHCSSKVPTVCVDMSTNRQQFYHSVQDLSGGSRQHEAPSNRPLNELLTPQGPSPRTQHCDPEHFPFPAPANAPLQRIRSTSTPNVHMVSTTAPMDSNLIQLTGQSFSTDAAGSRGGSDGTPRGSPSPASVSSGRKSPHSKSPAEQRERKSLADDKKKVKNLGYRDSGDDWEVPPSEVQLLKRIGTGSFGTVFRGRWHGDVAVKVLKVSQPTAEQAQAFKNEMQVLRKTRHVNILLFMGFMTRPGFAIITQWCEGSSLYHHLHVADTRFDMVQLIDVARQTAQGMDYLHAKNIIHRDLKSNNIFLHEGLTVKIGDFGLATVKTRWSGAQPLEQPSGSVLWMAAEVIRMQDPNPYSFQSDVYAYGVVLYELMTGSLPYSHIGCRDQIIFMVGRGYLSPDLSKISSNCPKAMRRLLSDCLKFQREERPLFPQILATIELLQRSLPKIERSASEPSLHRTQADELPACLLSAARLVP
# experimentalProtocol: radiometric filter-binding kinase assay, Kinase HotSpot
# conditionContext: compound 0.5 µM; ATP 10 µM
Kindly supply the reported residual activity values for the records listed here.
State the value, then name its unit.

Solved entries:
Cc1cc(Nc2nc(-c3ccccc3)nc3ccccc23)n[nH]1; 89.7%
O=C(Nc1ccc(Cl)cc1)c1ccccc1NCc1ccncc1; 91.4%
Cc1ccc(NC(=O)c2ccc(CN3CCN(C)CC3)cc2)cc1Nc1nc(-c2cccnc2)cs1; 102%
Nc1ncnc2[nH]nc(Nc3ccc(F)cc3)c12; 80.7%
CCN(CC)CCNC(=O)c1c(C)[nH]c(/C=C2\C(=O)Nc3ccc(Cl)cc32)c1C; 132%
CCc1nc(-c2ccc(OC)cc2)[nH]c1-c1ccncc1; 99.6%
CS(=O)(=O)CCNCc1ccc(-c2ccc3ncnc(Nc4ccc(OCc5cccc(F)c5)c(Cl)c4)c3c2)o1; 85%
COc1cc2c(Nc3ccc(Br)cc3F)ncnc2cc1OCC1CCN(C)CC1; 84%

List residual activity for every entry below, keeping the order given.
1. O=C(Nc1cccc(Nc2nccc(Nc3cccc(C(F)(F)F)c3)n2)c1)C1CC1
2. CC(C)N(CCC(=O)c1ccc2ccccc2c1)Cc1ccccc1
3. CC(C)[C@H](CO)Nc1nc(Nc2cc(N)cc(Cl)c2)c2ncn(C(C)C)c2n1

1. 90.2%
2. 104%
3. 82.4%

====

Kindly supply the reported residual activity values for the records listed here.
# testedSystem: UniProt P49840
# Sequence (P49840 whole entry, looked up): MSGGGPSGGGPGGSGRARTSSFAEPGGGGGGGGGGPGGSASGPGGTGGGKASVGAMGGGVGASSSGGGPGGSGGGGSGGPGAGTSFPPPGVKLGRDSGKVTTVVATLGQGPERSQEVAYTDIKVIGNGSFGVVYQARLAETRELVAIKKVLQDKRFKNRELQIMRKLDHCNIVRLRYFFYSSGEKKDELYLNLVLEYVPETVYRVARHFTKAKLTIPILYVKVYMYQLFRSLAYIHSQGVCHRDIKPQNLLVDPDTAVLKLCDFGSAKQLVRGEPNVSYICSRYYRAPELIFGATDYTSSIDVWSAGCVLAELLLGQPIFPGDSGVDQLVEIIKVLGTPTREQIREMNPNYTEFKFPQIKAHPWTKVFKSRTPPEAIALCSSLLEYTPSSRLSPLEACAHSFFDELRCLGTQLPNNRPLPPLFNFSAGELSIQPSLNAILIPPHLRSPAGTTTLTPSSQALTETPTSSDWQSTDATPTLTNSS
# experimentalProtocol: radiometric filter-binding kinase assay, Kinase HotSpot
# conditionContext: compound 0.5 µM; ATP 10 µM
State the value, then name its unit.

Solved entries:
O=c1cc(N2CCNCC2)oc2c(-c3ccccc3)cccc12; 99.7%
O=C1Nc2cc(Br)ccc2/C1=C1/Nc2ccccc2/C1=N\O; 3.6%
COc1cc2ncnc(Nc3ccc(F)c(Cl)c3)c2cc1OCCCN1CCOCC1; 99.7%

List residual activity for every entry below, keeping the order given.
1. O=C1Cc2c([nH]c3ccc([N+](=O)[O-])cc23)-c2ccccc2N1
2. Cc1ccc(NC(=O)c2ccc(CN3CCN(C)CC3)cc2)cc1Nc1nc(-c2cccnc2)cs1
3. O=C(NC(NC(=S)Nc1ccc(F)c([N+](=O)[O-])c1)C(Cl)(Cl)Cl)C(c1ccccc1)c1ccccc1 (stereo not drawn)

1: 0.971%; 2: 101%; 3: 105%

====

# testedSystem: EPHB2 (human)
# experimentalProtocol: radiometric filter-binding kinase assay, Kinase HotSpot
# conditionContext: compound 0.5 µM; ATP 10 µM
Rule: measured residual activity below 90% gets Yes; anything equal to or greater than 90% gets No.

Answered cases to consult:
Nc1nc(Nc2ccc(S(N)(=O)=O)cc2)nn1C(=S)Nc1c(F)cccc1F; Yes
Nc1nc(Nc2ccc(S(N)(=O)=O)cc2)nn1C(=O)c1c(F)cccc1F; No
Nc1n[nH]c2nnc(-c3c(-c4ccccc4)nn4ccccc34)cc12; No

Alright, here's another compound for you.
Take the compound COc1ccc(-c2cnc3c(-c4ccsc4)cnn3c2)cc1 and say whether its residual activity is less than 90%.
Yes

====

Kindly supply the reported residual activity values for the records listed here.
# testedSystem: CDK6 CCND3 (human) (UniProt P30281+Q00534)
# Sequence (P30281 whole entry, looked up): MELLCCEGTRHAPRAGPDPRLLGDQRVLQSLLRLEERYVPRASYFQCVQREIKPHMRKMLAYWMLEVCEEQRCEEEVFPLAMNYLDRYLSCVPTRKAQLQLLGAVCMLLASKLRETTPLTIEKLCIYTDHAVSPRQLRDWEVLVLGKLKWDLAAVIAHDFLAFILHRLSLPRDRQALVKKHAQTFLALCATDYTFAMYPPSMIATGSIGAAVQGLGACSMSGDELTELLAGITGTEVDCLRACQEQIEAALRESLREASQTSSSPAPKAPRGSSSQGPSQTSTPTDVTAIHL
# Sequence (Q00534 whole entry, looked up): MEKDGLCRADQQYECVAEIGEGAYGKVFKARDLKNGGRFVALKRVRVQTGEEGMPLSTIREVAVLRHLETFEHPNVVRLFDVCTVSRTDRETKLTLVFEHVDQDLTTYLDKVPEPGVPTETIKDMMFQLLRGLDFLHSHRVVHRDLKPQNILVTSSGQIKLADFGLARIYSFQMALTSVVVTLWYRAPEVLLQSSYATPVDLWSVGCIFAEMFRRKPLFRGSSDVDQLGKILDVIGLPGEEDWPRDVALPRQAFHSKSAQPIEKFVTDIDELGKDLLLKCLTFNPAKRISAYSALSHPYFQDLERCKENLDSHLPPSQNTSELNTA
# experimentalProtocol: radiometric filter-binding kinase assay, Kinase HotSpot
# conditionContext: compound 0.5 µM; ATP 10 µM
Give bare numbers, in %.

List residual activity for every entry below, keeping the order given.
1. Nc1n[nH]c2nnc(-c3c(-c4ccccc4)nn4ccccc34)cc12
2. Cc1ccc(NC(=O)c2ccc(CN3CCN(C)CC3)cc2)cc1Nc1nc(-c2cccnc2)cs1
3. CC(C)n1cnc2c(Nc3cccc(Cl)c3)nc(NCCO)nc21

1: 90.4; 2: 90.5; 3: 89.7

====

Kindly supply the reported residual activity values for the records listed here.
# testedSystem: UniProt P37023
# Sequence (P37023 whole entry, looked up): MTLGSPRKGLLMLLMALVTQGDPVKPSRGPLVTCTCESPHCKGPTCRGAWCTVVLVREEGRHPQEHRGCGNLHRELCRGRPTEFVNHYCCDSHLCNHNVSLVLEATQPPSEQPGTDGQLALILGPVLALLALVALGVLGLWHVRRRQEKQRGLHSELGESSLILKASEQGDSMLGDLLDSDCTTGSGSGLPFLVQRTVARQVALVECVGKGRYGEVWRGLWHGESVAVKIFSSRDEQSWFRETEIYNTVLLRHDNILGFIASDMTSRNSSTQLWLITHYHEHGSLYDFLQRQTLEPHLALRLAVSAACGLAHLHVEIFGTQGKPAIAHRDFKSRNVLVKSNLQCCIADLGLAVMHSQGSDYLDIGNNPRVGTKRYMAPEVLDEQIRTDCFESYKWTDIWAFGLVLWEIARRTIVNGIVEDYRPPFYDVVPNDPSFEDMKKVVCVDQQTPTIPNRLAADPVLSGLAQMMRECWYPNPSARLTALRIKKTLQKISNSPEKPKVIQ
# experimentalProtocol: radiometric filter-binding kinase assay, Kinase HotSpot
# conditionContext: compound 0.5 µM; ATP 10 µM
Give bare numbers, in %.

Solved entries:
CCN1/C(=C/C(C)=O)Sc2ccc(OC)cc21; 102
CC(C)[C@H](CO)Nc1nc(Nc2cccc(Cl)c2)c2ncn(C(C)C)c2n1; 96.7
COc1cc2nccc(Oc3ccc(NC(=S)NC(=O)c4ccccc4C)cc3)c2cc1OC; 91.7
CC(C)n1cnc2c(Nc3cccc(Cl)c3)nc(NCCO)nc21; 103

# next molecule below
Item: COc1cc2ncnc(Nc3ccc(F)c(Cl)c3)c2cc1OCCCN1CCOCC1 Test system: UniProt P37023 Read-out: residual activity Value: ?
96.9

====

Kindly supply the reported residual activity values for the records listed here.
# testedSystem: DDR2 (human) (UniProt Q16832)
# Sequence (Q16832 whole entry, looked up): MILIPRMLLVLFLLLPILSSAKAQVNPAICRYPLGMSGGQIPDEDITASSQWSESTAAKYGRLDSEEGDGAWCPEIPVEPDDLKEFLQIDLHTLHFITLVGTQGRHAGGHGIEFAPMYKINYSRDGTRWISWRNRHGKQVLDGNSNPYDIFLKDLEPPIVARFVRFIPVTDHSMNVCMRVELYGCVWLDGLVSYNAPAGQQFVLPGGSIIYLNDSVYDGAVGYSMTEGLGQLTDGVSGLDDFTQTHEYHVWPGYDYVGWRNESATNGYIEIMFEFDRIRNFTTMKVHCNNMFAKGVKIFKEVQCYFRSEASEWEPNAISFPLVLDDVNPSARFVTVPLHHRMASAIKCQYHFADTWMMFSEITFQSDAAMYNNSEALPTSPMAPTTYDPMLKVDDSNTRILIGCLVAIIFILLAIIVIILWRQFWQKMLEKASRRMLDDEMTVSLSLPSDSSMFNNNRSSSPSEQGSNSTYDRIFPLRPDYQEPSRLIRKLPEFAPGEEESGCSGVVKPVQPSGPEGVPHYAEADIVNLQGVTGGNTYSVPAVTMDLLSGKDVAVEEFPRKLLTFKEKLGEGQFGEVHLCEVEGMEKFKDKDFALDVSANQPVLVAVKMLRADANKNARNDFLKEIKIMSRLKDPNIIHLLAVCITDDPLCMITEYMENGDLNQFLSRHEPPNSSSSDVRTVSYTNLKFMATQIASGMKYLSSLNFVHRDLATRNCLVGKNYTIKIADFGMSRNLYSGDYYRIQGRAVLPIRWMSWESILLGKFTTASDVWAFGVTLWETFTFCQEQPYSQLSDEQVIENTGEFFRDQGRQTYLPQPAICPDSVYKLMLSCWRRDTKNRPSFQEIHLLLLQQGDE
# experimentalProtocol: radiometric filter-binding kinase assay, Kinase HotSpot
# conditionContext: compound 0.5 µM; ATP 10 µM
One number for each entry, in %.

Solved entries:
Clc1ccc(Nc2nnc(Cc3ccncc3)c3ccccc23)cc1; 97.1
COc1ccc(-c2cnc3c(-c4ccsc4)cnn3c2)cc1; 98.2
CS(=O)c1ccc(-c2nc(-c3ccc(F)cc3)c(-c3ccncc3)[nH]2)cc1 (centres undefined); 103

List residual activity for every entry below, keeping the order given.
1. O=C(Nc1ccc(Cl)cc1)c1ccccc1NCc1ccncc1
2. CSc1nc(-c2ccc(F)cc2)c(-c2ccnc(NC(C)c3ccccc3)c2)[nH]1 (centres undefined)
3. CC(C)[C@H](CO)Nc1nc(Nc2cccc(Cl)c2)c2ncn(C(C)C)c2n1

[88.9, 89.8, 99.1]

====

# testedSystem: ACVR1 (human) (UniProt Q04771)
# Sequence (Q04771 whole entry, looked up): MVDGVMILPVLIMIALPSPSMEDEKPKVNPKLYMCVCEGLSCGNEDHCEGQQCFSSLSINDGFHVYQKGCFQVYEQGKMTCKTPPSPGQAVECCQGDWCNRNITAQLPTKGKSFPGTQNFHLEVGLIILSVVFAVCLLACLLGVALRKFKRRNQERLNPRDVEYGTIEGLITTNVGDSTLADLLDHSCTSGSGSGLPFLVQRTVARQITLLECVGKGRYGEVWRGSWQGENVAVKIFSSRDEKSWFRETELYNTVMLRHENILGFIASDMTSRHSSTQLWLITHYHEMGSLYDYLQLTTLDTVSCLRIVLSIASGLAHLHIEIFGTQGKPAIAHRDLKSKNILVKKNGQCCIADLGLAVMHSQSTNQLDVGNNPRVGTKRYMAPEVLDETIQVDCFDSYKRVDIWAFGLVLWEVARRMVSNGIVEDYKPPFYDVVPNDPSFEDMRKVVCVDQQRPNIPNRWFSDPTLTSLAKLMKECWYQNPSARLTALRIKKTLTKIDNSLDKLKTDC
# experimentalProtocol: radiometric filter-binding kinase assay, Kinase HotSpot
# conditionContext: compound 0.5 µM; ATP 10 µM
metricName: residual activity (%)
Give bare numbers, in %.

Solved entries:
O=c1cc(N2CCNCC2)oc2c(-c3ccccc3)cccc12; 90.3
Oc1ccc(-c2nc(-c3ccc(F)cc3)c(-c3ccncc3)[nH]2)cc1; 106
CC(C)[C@H](CO)Nc1nc(Nc2cccc(Cl)c2)c2ncn(C(C)C)c2n1; 92.6

# next compound below
Given O=C(NC(NC(=S)Nc1ccc(F)c([N+](=O)[O-])c1)C(Cl)(Cl)Cl)C(c1ccccc1)c1ccccc1 (centres undefined) , state its recorded residual activity.
98.8

====

# testedSystem: PDPK1 (human) (UniProt O15530)
# Sequence (O15530 whole entry, looked up): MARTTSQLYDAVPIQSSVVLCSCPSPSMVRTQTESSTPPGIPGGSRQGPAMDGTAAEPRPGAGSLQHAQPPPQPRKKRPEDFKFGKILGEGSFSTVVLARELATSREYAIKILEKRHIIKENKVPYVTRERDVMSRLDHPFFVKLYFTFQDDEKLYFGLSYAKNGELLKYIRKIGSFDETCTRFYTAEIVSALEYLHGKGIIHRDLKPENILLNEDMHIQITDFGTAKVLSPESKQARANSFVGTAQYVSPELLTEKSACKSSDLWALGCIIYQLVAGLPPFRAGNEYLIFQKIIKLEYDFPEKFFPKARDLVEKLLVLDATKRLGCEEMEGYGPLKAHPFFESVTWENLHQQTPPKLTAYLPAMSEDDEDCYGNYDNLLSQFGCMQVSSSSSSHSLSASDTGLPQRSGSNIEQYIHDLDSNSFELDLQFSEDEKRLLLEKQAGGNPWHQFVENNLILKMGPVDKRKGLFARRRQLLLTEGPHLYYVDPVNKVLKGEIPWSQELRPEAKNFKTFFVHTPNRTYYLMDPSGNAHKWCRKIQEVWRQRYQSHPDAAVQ
# experimentalProtocol: radiometric filter-binding kinase assay, Kinase HotSpot
# conditionContext: compound 0.5 µM; ATP 10 µM
metricName: residual activity (%)
Numbers only, in %.

Solved entries:
O=C(NC(NC(=S)Nc1ccc(F)c([N+](=O)[O-])c1)C(Cl)(Cl)Cl)C(c1ccccc1)c1ccccc1 (stereo unspecified); 112
Nc1nc(Nc2ccc(S(N)(=O)=O)cc2)nn1C(=S)Nc1c(F)cccc1F; 19.3
O=c1cc(N2CCNCC2)oc2c(-c3ccccc3)cccc12; 110
Oc1ccc(-c2nc(-c3ccc(F)cc3)c(-c3ccncc3)[nH]2)cc1; 98.2
CC(C)n1cnc2c(Nc3cccc(Cl)c3)nc(NCCO)nc21; 96.8
Nc1nc(Nc2ccc(S(N)(=O)=O)cc2)nn1C(=O)c1c(F)cccc1F; 92.3
CSc1nc(-c2ccc(F)cc2)c(-c2ccnc(NC(C)c3ccccc3)c2)[nH]1 (stereo unspecified); 91.3
CCN1/C(=C/C(C)=O)Sc2ccc(OC)cc21; 97.5
COc1ccc(-c2cnc3c(-c4ccsc4)cnn3c2)cc1; 96
O=C1Nc2ccccc2/C1=C\c1c(Cl)[nH]c2ccccc12; 94.3

# next molecule below
Given CC(C)[C@H](CO)Nc1nc(Nc2cccc(Cl)c2)c2ncn(C(C)C)c2n1 , state its recorded residual activity.
91.6

====

# testedSystem: AKT2 (human) (UniProt P31751)
# Sequence (P31751 whole entry, looked up): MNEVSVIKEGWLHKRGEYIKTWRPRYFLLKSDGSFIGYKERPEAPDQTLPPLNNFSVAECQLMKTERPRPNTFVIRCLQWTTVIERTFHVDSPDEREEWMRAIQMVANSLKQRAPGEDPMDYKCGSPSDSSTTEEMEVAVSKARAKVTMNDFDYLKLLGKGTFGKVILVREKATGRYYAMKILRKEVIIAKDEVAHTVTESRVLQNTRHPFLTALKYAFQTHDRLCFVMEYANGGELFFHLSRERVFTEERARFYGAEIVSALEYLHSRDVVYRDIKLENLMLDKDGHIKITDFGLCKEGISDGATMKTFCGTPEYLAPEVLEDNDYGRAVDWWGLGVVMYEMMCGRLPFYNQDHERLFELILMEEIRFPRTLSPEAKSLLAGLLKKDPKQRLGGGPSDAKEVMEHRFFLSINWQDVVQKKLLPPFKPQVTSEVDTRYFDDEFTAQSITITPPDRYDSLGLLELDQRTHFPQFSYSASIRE
# experimentalProtocol: radiometric filter-binding kinase assay, Kinase HotSpot
# conditionContext: compound 0.5 µM; ATP 10 µM
Kindly supply the reported residual activity values for the records listed here.
Numbers only, in %.

Solved entries:
CSc1nc(-c2ccc(F)cc2)c(-c2ccnc(NC(C)c3ccccc3)c2)[nH]1 (stereo not given); 96.8
CCN1/C(=C/C(C)=O)Sc2ccc(OC)cc21; 95.2

List residual activity for every entry below, keeping the order given.
1. NC(=O)c1ccc(N(C(N)=O)c2c(F)cccc2F)nc1-c1ccc(F)cc1F
2. Oc1ccc(-c2nc(-c3ccc(F)cc3)c(-c3ccncc3)[nH]2)cc1
3. CS(=O)c1ccc(-c2nc(-c3ccc(F)cc3)c(-c3ccncc3)[nH]2)cc1 (stereo not given)

[118, 99, 96.8]

====

Kindly supply the reported residual activity values for the records listed here.
# testedSystem: CDK9 CCNK (human) (UniProt O75909+P50750)
# experimentalProtocol: radiometric filter-binding kinase assay, Kinase HotSpot
# conditionContext: compound 0.5 µM; ATP 10 µM
Numbers only, in %.

CSc1nc(-c2ccc(F)cc2)c(-c2ccnc(NC(C)c3ccccc3)c2)[nH]1 (stereo not given); 91.1
Cc1cc2ncc(-c3ccccc3)nc2cc1C; 101
Cc1ccc(NC(=O)c2ccc(CN3CCN(C)CC3)cc2)cc1Nc1nc(-c2cccnc2)cs1; 109

List residual activity for every entry below, keeping the order given.
1. COc1ccc(-c2cnc3c(-c4ccsc4)cnn3c2)cc1
2. O=C1Nc2ccccc2/C1=C\c1c(Cl)[nH]c2ccccc12

1. 76.9
2. 98.3

List residual activity for every entry below, keeping the order given.
1. CC(C)(C)c1nc2c3ccc(F)cc3c3c(=O)[nH]ccc3c2[nH]1
2. CCOc1nc(NC(=O)Cc2cc(OC)ccc2OC)cc(N)c1C#N
3. CS(=O)c1ccc(-c2nc(-c3ccc(F)cc3)c(-c3ccncc3)[nH]2)cc1 (stereo not given)

1: 92.3; 2: 89.2; 3: 98.6

List residual activity for every entry below, keeping the order given.
1. Clc1ccc(Nc2nnc(Cc3ccncc3)c3ccccc23)cc1
2. CC(C)[C@H](CO)Nc1nc(Nc2cccc(Cl)c2)c2ncn(C(C)C)c2n1

1: 104; 2: 63.6
